# Organism: Oryctolagus cuniculus
# Experiment Notes: Minimum pyrogenic dose(MPD) was determined
# Assay type: functional
Metric: MPD (µg/kg)

# Compound, Qualifying Sign, Reported Value
rows = [
    ("CCCCCCCCCCC[C@H](CC(=O)NC1C(O)OC(COC2OC(CO)C(OP(=O)(O)O)C(OC(=O)C[C@@H](CCCCCCCCCCC)OC(=O)CCCCCCC)C2NC(=O)C[C@@H](CCCCCCCCCCC)OC(=O)CCCCCCC)C(O)C1O)OC(=O)CCCCCCC.CCN(CC)CC (some centres not stated)", "<", 2.5),
    ("CCCCCCCCCCC[C@H](CC(=O)NC1C(O)OC(COC2OC(CO)C(OP(=O)(O)O)C(OC(=O)C[C@@H](CCCCCCCCCCC)OC(=O)CCC)C2NC(=O)C[C@@H](CCCCCCCCCCC)OC(=O)CCC)C(O)C1O)OC(=O)CCC.CCN(CC)CC (some centres not stated)", "=", 10),
    ("CCCCCCCCCCCC(=O)O[C@H](CCCCCCCCCCC)CC(=O)NC1C(O)OC(COC2OC(CO)C(OP(=O)(O)O)C(OC(=O)C[C@@H](CCCCCCCCCCC)OC(=O)CCCCCCCCCCC)C2NC(=O)C[C@@H](CCCCCCCCCCC)OC(=O)CCCCCCCCCCC)C(O)C1O.CCN(CC)CC (some centres not stated)", "<", 2.5),
    ("CCCCCCCCCCCCCC(=O)O[C@H](CCCCCCCCCCC)CC(=O)NC1C(O)OC(COC2OC(CO)C(OP(=O)(O)O)C(OC(=O)C[C@@H](CCCCCCCCCCC)OC(=O)CCCCCCCCCCCCC)C2NC(=O)C[C@@H](CCCCCCCCCCC)OC(=O)CCCCCCCCCCCCC)C(O)C1O.CCN(CC)CC (some centres not stated)", "=", 15),
    ("CCCCCCCCCCC[C@H](CC(=O)NC1C(O)OC(COC2OC(CO)C(OP(=O)(O)O)C(OC(=O)C[C@@H](CCCCCCCCCCC)OC(=O)CCCCCCCCC)C2NC(=O)C[C@@H](CCCCCCCCCCC)OC(=O)CCCCCCCCC)C(O)C1O)OC(=O)CCCCCCCCC.CCN(CC)CC (some centres not stated)", "<", 0.06),
    ("CCCCCCCCCCCCCCCC(=O)O[C@H](CCCCCCCCCCC)CC(=O)NC1C(O)OC(COC2OC(CO)C(OP(=O)(O)O)C(OC(=O)C[C@@H](CCCCCCCCCCC)OC(=O)CCCCCCCCCCCCC)C2NC(=O)C[C@@H](CCCCCCCCCCC)OC(=O)CCCCCCCCCCC)C(O)C1O.CCN(CC)CC (some centres not stated)", "=", 15),
    ("CCCCCCCCCCC[C@H](CC(=O)NC1C(O)OC(COC2OC(CO)C(OP(=O)(O)O)C(OC(=O)C[C@@H](CCCCCCCCCCC)OC(=O)CCCCC)C2NC(=O)C[C@@H](CCCCCCCCCCC)OC(=O)CCCCC)C(O)C1O)OC(=O)CCCCC.CCN(CC)CC (some centres not stated)", "=", 10),
]
